# measurement.description: Functional assay to measure dose dependent changes in cell viability from drug treatment in Vero E6 miRFP670 cells (cotreated with P-gp inhibitor, CP100356) that are infected with Dengue virus type 2 New Guinea C. […] Cytotoxicity is reported via via analysis of DAPI count using high-content imager. The assay has been performed by KU Leuven.
# Assay type: toxicity, cell-based, Vero C1008
# condition.summary: chlorocebus sabaeus, with CP100356 (P-gp inhibitor, concentration not stated); p-gp concentration 500 nM
measurement.kind: CC50 (µM)

>>> obs_value("O=C(Nc1cc(Cl)cc(C(=O)Nc2ccc([C@@H]3C[C@H]3C(=O)O)cc2)c1)OCc1ccccc1")
21.1
>>> obs_value("CCOCCNC(=O)[C@H](Nc1ccc2c(c1)CNC2)c1cc(Cl)cc2[nH]ncc12")
9.94
>>> obs_value("C=CC[C@H]1NCc2cc(NC(=O)c3cc(Cl)cc4[nH]ncc34)ccc21")
3.12
>>> obs_value("O=C(Nc1ccc2c(c1)CN[C@H]2C[C@H](O)CO)c1cc(F)cc2[nH]ncc12")
31.2

----------
Overview of recorded CC50 for various compounds
# measurement.description: Functional CPE-based assay to measure dose dependent changes in cell viability from drug treatment in Vero E6 miRFP670 cells (cotreated with P-gp inhibitor, CP100356). Cells are treated with antiviral candidates that have been serially diluted. Cytotoxicity is reported via analysis of MTS assays in uninfected cells. The assay has been performed by KU Leuven.
# Type: toxicity, Vero C1008
# condition.summary: chlorocebus sabaeus, Vero E6 miRFP670 cells, with CP100356 (P-gp inhibitor, concentration not stated); p-gp concentration 500 nM
measurement.kind: CC50

>>> obs_value("O=C(NCCC1CC1)[C@H](Nc1ccc2c(c1)CNC2)c1cc(Cl)cc(C2CC2)c1")
"11.8 µM"
>>> obs_value("O=C(Nc1cc2c(c(-c3ccnnc3)c1)CNC2)c1cc(Cl)cc2[nH]ncc12")
"> 50 µM"
>>> obs_value("O=C(Nc1cc(Cl)cc(C(=O)Nc2ccc(C3CCNCC3)cc2)c1)OCc1ccccc1")
"1.43 µM"
>>> obs_value("N[C@H]1Cc2ccc(NC(=O)c3cc(Cl)cc4[nH]ncc34)cc2C1")
"> 50 µM"
>>> obs_value("Nc1cc(Cl)cc(C(=O)Nc2ccc3c(c2)CNC3)c1N")
"> 50 µM"

----------
Overview of recorded CC10 for various compounds
# measurement.description: Functional metabolic assay to measure dose dependent changes in cell viability from drug treatment in Vero E6/TMPRSS2 cells (cotreated with P-gp inhibitor, Elacridar). […] Cytotoxicity is reported via measuring absorbance and analysis of MTT/MTS assays in uninfected cells. The assay has been performed by Icahn School of Medicine at Mount Sinai.
# Assay type: toxicity, cell-based, VeroE6/TMPRSS2
# condition.summary: chlorocebus sabaeus, veroe6/tmprss2; p-gp concentration 2 uM
measurement.kind: CC10 (µM)

>>> obs_value("C=CC[C@H](Nc1cc(Cl)cc(NC(=O)OCc2ccccc2)c1)c1cccc(-c2nn[nH]n2)c1")
0.105
>>> obs_value("CCc1nc2c(C(=O)Nc3ccc4c(c3)CNC4)cc(Br)cc2[nH]1")
0.32
>>> obs_value("O=C(Nc1ccc2c(c1)CNC2)c1cc(Cl)cc(C2CC2)c1")
0.136
>>> obs_value("CCc1cc(C(=O)Nc2cccc(CN)c2)sc1-c1ccc(Cl)cc1")
0.452

----------
# measurement.description: Functional CPE-based assay to measure dose dependent changes in cell viability from drug treatment in Vero E6 miRFP670 cells. Cells are treated with antiviral candidates that have been serially diluted. Cytotoxicity is reported via analysis of MTS assays in uninfected cells. The assay has been performed by KU Leuven.
# Assay type: toxicity, Vero C1008
# condition.summary: chlorocebus sabaeus, vero c1008
measurement.kind: CC50 (µM)

>>> obs_value("CCc1cc(Br)cc2c(Cc3ccc(-c4nnn[nH]4)cc3)c[nH]c12")
17.9

----------
# measurement.description: Functional metabolic assay to measure dose dependent changes in cell viability from drug treatment in Vero E6/TMPRSS2 cells (cotreated with P-gp inhibitor, Elacridar). […] Cytotoxicity is reported via measuring absorbance and analysis of MTT/MTS assays in uninfected cells. The assay has been performed by Icahn School of Medicine at Mount Sinai.
# Format: toxicity, cell-based, VeroE6/TMPRSS2
# condition.summary: chlorocebus sabaeus, Vero E6/TMPRSS2 cells, with Elacridar (P-gp inhibitor, concentration not stated); p-gp concentration 2 uM
Overview of recorded CC50 for various compounds
measurement.kind: CC50

>>> obs_value("O=C(NCC1CCOCC1)[C@H](Nc1ccc2c(c1)CNC2)c1cc(Cl)cc2[nH]ncc12")
"> 50 µM"
>>> obs_value("O=C(O)c1cc(Oc2ccc(F)cc2)c(F)cc1NS(=O)(=O)c1ccc(Oc2ccccc2Cl)cc1")
"> 50 µM"
>>> obs_value("O=C(Nc1ccc2c(c1)CNC2)c1cc(Cl)cc(-n2cccc2)c1")
"46.4 µM"
>>> obs_value("NCCCCc1ccc(NC(=O)c2cc(Cl)cc(NC(=O)OCc3ccccc3)c2)cc1")
"> 50 µM"
>>> obs_value("O=C(Nc1ccc2c(c1)CNC2)c1cc(F)cc2[nH]ncc12")
"> 50 µM"
>>> obs_value("O=C(Nc1cc(Cl)cc(C(=O)Nc2ccc3c(c2)CNCCO3)c1)OCc1ccccc1")
"> 50 µM"
>>> obs_value("O=C(Nc1ccc2c(c1)CNC2)c1cc(Br)cc2[nH]c(C3CCOCC3)nc12")
"27.8 µM"
>>> obs_value("N#Cc1cc(C(=O)Nc2ccc3c(c2)CNC3)cc(C(F)(F)F)c1")
"> 50 µM"
>>> obs_value("O=C(NC1CCOCC1)[C@H](Nc1ccc2c(c1)CNC2)c1cc(Cl)cc(C2CC2)c1")
"> 50 µM"
>>> obs_value("O=C(Nc1ccc2c(c1)CCNCC2)c1cc(Cl)cc2[nH]ncc12")
"44.2 µM"

----------
Overview of recorded CC50 for various compounds
# measurement.description: Functional assay to measure dose dependent changes in cell viability from drug treatment in Vero E6 miRFP670 cells (cotreated with P-gp inhibitor, CP100356) that are infected with Dengue virus type 2 New Guinea C. […] Cytotoxicity is reported via via analysis of DAPI count using high-content imager. The assay has been performed by KU Leuven.
# Format: toxicity, cell-based, Vero C1008
# condition.summary: chlorocebus sabaeus, with CP100356 (P-gp inhibitor, concentration not stated); p-gp concentration 500 nM
measurement.kind: CC50 (µM)

>>> obs_value("O=C(Nc1ccc2c(c1)CNC2)c1cc(F)cc2[nH]c(-c3ccc(F)cc3)nc12")
4.33
>>> obs_value("N[C@H]1Cc2ccc(NC(=O)c3cc(Cl)cc(NC(=O)OCc4ccccc4)c3)cc2C1")
4.15
>>> obs_value("CCCCCC(=O)N[C@H](C(=O)NCc1cccc(CN)c1)c1ccc(OCc2ccccc2)cc1")
2.32
>>> obs_value("O=C(Nc1ccc2c(c1)CNC2)c1cc(Cl)cc2ccccc12")
25.1
>>> obs_value("O=C(Nc1cc(Cl)cc(C(=O)Nc2ccc3c(c2)CNC3)c1)OCc1ccccc1")
12.1
>>> obs_value("N#Cc1cc(C(=O)Nc2ccc3c(c2)CNC3)cc(C(F)(F)F)c1")
0.739
>>> obs_value("Cc1ncc(-c2cc(F)cc(C(=O)Nc3ccc4c(c3)CNC4)c2)o1")
12.5
>>> obs_value("C[C@@]1(c2cccc(CN)c2)C[C@H]1c1cc(Cl)cc(NC(=O)OCc2ccccc2)c1")
6.46
>>> obs_value("Cc1[nH]c2ccccc2c1CN1CCC(c2c[nH]c3ncccc23)CC1")
31
>>> obs_value("O=C(Nc1ccc2c(c1)CNC2)c1cc(Cl)cc(C2CC2)c1")
11.2
>>> obs_value("Cc1cccc(-c2nc3c(C(=O)Nc4ccc5c(c4)CNC5)cc(Cl)cc3[nH]2)c1O")
9
>>> obs_value("C=CC[C@H](Nc1ccc(-c2nn[nH]n2)cc1)c1cc(Cl)cc(NC(=O)OCc2ccccc2)c1")
10.7
>>> obs_value("NCc1cccc(NC(=O)c2cc(Cl)cc3c2cnn3CC2CC2)c1")
24.1
>>> obs_value("Cc1ccc(NC(=O)c2cc(Cl)cc(NC(=O)OCc3ccccc3)c2)cc1CN")
4.33

----------
# measurement.description: Functional CPE-based assay to measure dose dependent changes in cell viability from drug treatment in Vero E6 miRFP670 cells (cotreated with P-gp inhibitor, CP100356). Cells are treated with antiviral candidates that have been serially diluted. Cytotoxicity is reported via analysis of MTS assays in uninfected cells. The assay has been performed by KU Leuven.
# Format: toxicity, Vero C1008
# condition.summary: chlorocebus sabaeus, Vero E6 miRFP670 cells, with CP100356 (P-gp inhibitor, concentration not stated); p-gp concentration 100 nM
measurement.kind: CC50

>>> obs_value("O=C(Nc1ccc2c(c1)CNC2)c1cc(Cl)cc2[nH]ncc12")
"> 50 µM"

----------
# measurement.description: Functional CPE-based assay to measure dose dependent changes in cell viability from drug treatment in Huh-7 cells. Cells are treated with antiviral candidates that have been serially diluted. Cytotoxicity is reported via analysis of MTT/ MTS assays in uninfected cells. The assay has been performed by National Institute of Allergy and Infectious Diseases.
# Type: toxicity
# condition.summary: human
Overview of recorded CC50 for various compounds
measurement.kind: CC50 (µM)

>>> obs_value("NCc1ccc(-c2ncc(OCC3CCNCC3)nc2-c2ccc(C3CCOCC3)cc2)cc1")
32
>>> obs_value("COc1cc(Cc2c(-c3ccc(F)cc3)noc2C)nc(N2CCNCC2)n1")
18
>>> obs_value("COc1cc(N[C@@H](C(=O)c2c[nH]c3ccc(OC(F)(F)F)cc23)c2ccc(Cl)cc2OC)cc(S(C)(=O)=O)c1")
5
>>> obs_value("O=C(O)c1cc(Oc2ccc(F)cc2)c(F)cc1NS(=O)(=O)c1ccc(Oc2ccccc2Cl)cc1")
20
>>> obs_value("CCCC[C@H](NC(C)=O)C(=O)N[C@H](C(=O)NCc1ccc(C(N)=O)cc1)c1ccc(OCc2ccccc2)cc1")
15
>>> obs_value("NCc1cccc(NC(=O)[C@@H](NC(=O)OCc2ccccc2)c2ccc(OCc3ccccc3)cc2)c1")
18
>>> obs_value("COc1cc(N[C@@H](C(=O)N2CCc3ccc(OC(F)(F)F)cc32)c2ccc(Cl)cc2)cc(OCCCC(=O)O)c1")
19
>>> obs_value("c1cc(C2CCN(Cc3c[nH]c4ccccc34)CC2)c2ccncc2c1")
32
>>> obs_value("NCc1ccc(-c2ncc(OCC3CCNCC3)nc2-c2ccc(-c3ccoc3)cc2)cc1")
5.5
>>> obs_value("CC(C)CNC(=O)c1cc(Cl)c(F)cc1NS(=O)(=O)c1ccc(Oc2ccccc2Cl)cc1")
3.1
>>> obs_value("c1ccc2sc(C3CCN(Cc4c[nH]c5ccccc45)CC3)nc2c1")
18
>>> obs_value("NCc1cccc(NC(=O)C[C@@H](NC(=O)OCc2ccccc2)c2ccc(OCc3ccccc3)cc2)c1")
6.1
>>> obs_value("O=C(Nc1ccc2c(c1)B(O)OC2)c1cccc(OCc2c(Cl)cccc2Cl)c1")
1.9
>>> obs_value("CCCCCC(=O)N[C@H](C(=O)Nc1ccc2[nH]ncc2c1)c1ccc(OCc2ccccc2)cc1")
32
>>> obs_value("CCCCCC(=O)N[C@H](C(=O)Nc1ccc(C(N)=O)cc1)c1ccc(OCc2ccccc2)cc1")
32
>>> obs_value("CC1(C)Cc2sc(NC(=O)Cc3ccc(S(N)(=O)=O)cc3)c(C#N)c2CN1CC1CCCCC1")
16
>>> obs_value("O=C(NCC(F)(F)F)c1cc(Cl)c(F)cc1NS(=O)(=O)c1ccc(Oc2ccccc2Cl)cc1")
1.9
>>> obs_value("CCCCCC(=O)N[C@H](C(=O)N1CCCCC1)c1ccc(OCc2ccccc2)cc1")
19
>>> obs_value("CCCCCC(=O)N[C@H](C(=O)NCc1cccc(CN)c1)c1ccc(OCc2ccccc2)cc1")
18
>>> obs_value("CC(C)CNC(=O)c1cc(Cl)ccc1NS(=O)(=O)c1ccc(Oc2ccccc2Cl)cc1")
6.5
